- EXPERIMENTAL TARGET: recombinant human integrin αVβ6 (Homo sapiens (Human), UniProt P06756+P18564)
- Sequence (P06756 31-992): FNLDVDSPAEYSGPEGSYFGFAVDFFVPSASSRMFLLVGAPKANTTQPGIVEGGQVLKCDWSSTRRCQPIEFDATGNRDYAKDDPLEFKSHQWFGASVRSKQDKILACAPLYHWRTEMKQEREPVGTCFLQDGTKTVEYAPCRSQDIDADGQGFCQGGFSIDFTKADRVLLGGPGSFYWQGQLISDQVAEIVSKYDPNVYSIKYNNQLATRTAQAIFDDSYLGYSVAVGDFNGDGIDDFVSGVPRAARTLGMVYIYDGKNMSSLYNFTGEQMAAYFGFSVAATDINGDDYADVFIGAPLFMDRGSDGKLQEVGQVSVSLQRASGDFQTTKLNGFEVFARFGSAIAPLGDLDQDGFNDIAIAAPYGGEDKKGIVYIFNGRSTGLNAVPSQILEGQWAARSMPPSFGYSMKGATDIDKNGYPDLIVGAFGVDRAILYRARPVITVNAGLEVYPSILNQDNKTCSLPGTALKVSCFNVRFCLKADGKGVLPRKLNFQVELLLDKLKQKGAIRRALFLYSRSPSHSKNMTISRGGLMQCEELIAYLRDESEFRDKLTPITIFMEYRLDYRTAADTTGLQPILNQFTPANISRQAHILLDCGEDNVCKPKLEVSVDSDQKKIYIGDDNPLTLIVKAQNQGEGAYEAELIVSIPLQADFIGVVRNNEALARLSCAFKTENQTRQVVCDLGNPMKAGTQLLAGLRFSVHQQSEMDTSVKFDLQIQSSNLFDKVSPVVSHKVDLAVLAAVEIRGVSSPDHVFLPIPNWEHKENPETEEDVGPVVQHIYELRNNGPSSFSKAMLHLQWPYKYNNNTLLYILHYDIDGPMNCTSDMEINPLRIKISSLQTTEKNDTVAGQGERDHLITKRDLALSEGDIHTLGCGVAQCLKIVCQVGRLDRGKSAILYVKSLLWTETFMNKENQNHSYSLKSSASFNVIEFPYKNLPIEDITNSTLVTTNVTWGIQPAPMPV
- Sequence (P18564 22-707): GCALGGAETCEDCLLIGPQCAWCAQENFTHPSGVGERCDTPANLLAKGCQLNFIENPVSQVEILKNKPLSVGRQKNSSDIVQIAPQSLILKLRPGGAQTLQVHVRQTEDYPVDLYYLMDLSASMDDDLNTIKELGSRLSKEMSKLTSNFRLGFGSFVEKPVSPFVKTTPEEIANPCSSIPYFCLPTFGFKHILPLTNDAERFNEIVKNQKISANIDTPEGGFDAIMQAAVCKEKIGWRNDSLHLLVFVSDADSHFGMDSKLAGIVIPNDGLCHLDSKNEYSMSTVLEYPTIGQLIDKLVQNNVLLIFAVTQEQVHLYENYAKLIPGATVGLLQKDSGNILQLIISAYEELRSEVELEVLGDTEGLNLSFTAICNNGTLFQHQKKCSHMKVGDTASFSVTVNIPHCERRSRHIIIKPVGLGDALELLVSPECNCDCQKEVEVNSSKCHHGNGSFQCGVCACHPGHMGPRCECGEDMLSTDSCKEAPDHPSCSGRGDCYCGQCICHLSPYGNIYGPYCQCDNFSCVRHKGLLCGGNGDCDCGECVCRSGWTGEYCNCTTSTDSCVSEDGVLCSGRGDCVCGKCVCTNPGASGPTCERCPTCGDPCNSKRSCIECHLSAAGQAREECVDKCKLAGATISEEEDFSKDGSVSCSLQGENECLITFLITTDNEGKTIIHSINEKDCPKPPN
- METHOD NOTES: Solid phase integrin αVβ6 binding assay
- EXPERIMENTAL CONDITIONS: inhibition of recombinant TGFβ1 LAP binding to coated integrin, IC50 presented in four ranges, read-out: αvβ6 Inhibition IC50 (nM) - range
Here, each record is paired with measured IC50 data.

{"CPD SMILES": "COCCN(CCCCc1ccc2c(n1)NCCC2)CC[C@H](Nc1ncnc2cccnc12)C(=O)O", "IC50": "< 50 nM"}
{"CPD SMILES": "COC[C@@H](F)CN(CCCCc1ccc2c(n1)NCCC2)CC[C@H](Nc1nc(-c2cccnc2)nc2ccccc12)C(=O)O", "IC50": "< 50 nM"}
{"CPD SMILES": "O=C(O)[C@H](CCN(CCCCc1ccc2c(n1)NCCC2)CCOc1ccccc1)Nc1cc(-n2cccn2)ncn1", "IC50": "< 50 nM"}

Now examine the next entry.
Reported IC50, compound O=C(O)[C@H](CCN(CCCCc1ccc2c(n1)NCCC2)CC(F)F)Nc1cc(-n2cccn2)ncn1 : ____
> 1000 nM
